Reference source for all entries: ChEMBL document CHEMBL1201862

tested on: NCI-H460; test: NCI tumour cell line growth inhibition, 48 h
Calls of active or inactive are those of the source. No stated cut-off is given here; in the data, active = GI50 up to about 1.1 µM and inactive = higher.
Log the outcome using a class from label 1 = active, label 0 = inactive

Lookup: What classification did C[n+]1c2ccccc2n2c3ccccc3c(NCCCn3ccnc3)c(C#N)c21 end up with in this test?
Found: label 0

Lookup: What classification did COc1ccc(C(=O)/C=C/c2ccc(O)c(O)c2F)c(OC)c1 end up with in this test?
Found: label 0

Lookup: What classification did CCC(CON(C)c1ccccc1)(SC)SC end up with in this test?
Found: label 0

Lookup: What classification did COC(=O)CC[C@]12C[C@]13CC[C@]1(C)C4C(C)C[C@]5(CC(C)C(=O)O5)OC4CC1(C)C3CCC2C(C)(C)O (stereo not given in full) end up with in this test?
Found: label 0

Lookup: What classification did CC(=O)OC1COC(n2c(-c3ccc(Cl)cc3)cc(-c3ccccc3)c(C#N)c2=S)C(OC(C)=O)C1OC(C)=O (stereo not given) end up with in this test?
Found: label 0

Lookup: What classification did N#C[BH2-][n+]1ccc(C(=O)NNCC(F)(F)F)cc1 end up with in this test?
Found: label 0

Lookup: What classification did COc1ccc(CC2c3cc(OC)c(OC)cc3CC[N+]2(C)C)cc1OC (stereo not given) end up with in this test?
Found: label 0

Lookup: What classification did COc1cccc([C@H]2CC(=O)c3cc4c(cc3N2)OCO4)c1 end up with in this test?
Found: label 1

Lookup: What classification did COc1cc(-c2nccc3cc(OC)c(OC)cc23)ccc1O end up with in this test?
Found: label 0

Lookup: What classification did COCCCNC(=O)C1C(=O)N(CCCOC)C(=O)/C1=N\N (stereo not given) end up with in this test?
Found: label 0
